tested.on: MEK5 PB1 domain binding to MEKK2 (MAP3K2) mutant PB1, human
procedure.text: mutant MEKK2 PB1-MEK5 interaction blockers – biochemical, bead multiplex flow cytometry, dose response (AID 1895)
experimental.context: Bead-based multiplex flow cytometry
Activity calls are given as the source filed them. No rule for the calls is given here.
Pick one: active, inactive

Here are 4 compounds together with their reported answers.
compound | label.class
COc1ccc(/C=N/Nc2cc(C)nc3ccc(Br)cc23)cc1 | active
O=[N+]([O-])c1ccc(/C=C/C2=NN(c3ccccc3)C(c3ccco3)C2)o1 (stereo not given) | inactive
Cc1sc(NC(=O)c2ccccc2)c(C(c2ccccn2)N2CCN(CCO)CC2)c1C (stereo not given) | inactive
CCN1/C(=C/c2ccc3cc(C)ccc3[n+]2C)Sc2ccc3sccc3c21 | inactive

For CCCCCc1cc(=O)oc2c(C(CCN3CCCC(C)C3)c3ccc(OC)cc3)c(OC)cc(OC)c12 (stereo not given) , what call appears in the results of this test?
active
